Test system: NHBE cells
experiment summary: Biolog metabolic array: substrate use by NHBE cells with or without CA09 infection
Format: cell-based, human
measurement conditions: Control (uninfected) NHBE cells, 9 hr
quantity kind: 590 nm absorbance normalized to zero hour (substrate use), 9 hr

- compound: "CC(O)C(=O)O (stereo not drawn)"
  measured target: "NHBE cells"
  observed value: 3.56
- compound: "OC[C@H]1O[C@H](OCC2O[C@@H](O)[C@H](O)[C@@H](O)[C@@H]2O)[C@H](O)[C@@H](O)[C@H]1O (stereo partly drawn)"
  measured target: "NHBE cells"
  observed value: 2.05
- compound: "OC[C@H]1O[C@H](OC[C@H]2O[C@H](OC[C@H]3O[C@H](O[C@]4(CO)O[C@H](CO)[C@@H](O)[C@@H]4O)[C@H](O)[C@@H](O)[C@@H]3O)[C@H](O)[C@@H](O)[C@H]2O)[C@H](O)[C@@H](O)[C@H]1O"
  measured target: "NHBE cells"
  observed value: 3.90

* * *

Test system: NHBE cells
experiment summary: Biolog metabolic array: substrate use by NHBE cells with or without CA09 infection
Format: cell-based, human
measurement conditions: Virus: CA09-infected NHBE cells, MOI 1; Biolog PMM2; 6 hr
Each record's class is read off its 590 nm absorbance normalized to zero hour (substrate use), 6 hr using these ranges: lo: < 0.9; mid: ≥ 0.9 and < 2; hi: ≥ 2

- molecule: "O=C(O)CC(O)(CC(=O)O)C(=O)O"
  measured target: "NHBE cells"
  label value: "hi"
- molecule: "CC[C@H](O)C(=O)O (racemic) [D,L-a-Hydroxy-Butyric Acid]"
  measured target: "NHBE cells"
  label value: "hi"
- molecule: "O=C(CO)[C@@H](O)[C@@H](O)[C@H](O)CO"
  measured target: "NHBE cells"
  label value: "lo"
- molecule: "O=C(O)CCC(=O)C(=O)O"
  measured target: "NHBE cells"
  label value: "lo"
- molecule: "COC(=O)[C@@H](C)O [Methyl D-Lactate]"
  measured target: "NHBE cells"
  label value: "hi"
- molecule: "CO[C@@H]1OC[C@@H](O)[C@H](O)[C@H]1O [b-Methyl-D-Xyloside]"
  measured target: "NHBE cells"
  label value: "hi"
- molecule: "OC[C@H]1O[C@@](CO)(O[C@H]2O[C@H](CO)[C@@H](O)[C@H](O)[C@H]2O)[C@@H](O[C@H]2O[C@H](CO)[C@@H](O)[C@H](O)[C@H]2O)[C@@H]1O"
  measured target: "NHBE cells"
  label value: "hi"
- molecule: "OC[C@@]12OC[C@@H](O1)[C@@H](O)[C@@H](O)[C@@H]2O"
  measured target: "NHBE cells"
  label value: "mid"
- molecule: "Nc1ncnc2c1ncn2[C@@H]1O[C@H](CO)[C@@H](O)[C@H]1O"
  measured target: "NHBE cells"
  label value: "hi"
- molecule: "OC[C@H]1O[C@H](OC[C@H]2O[C@H](OC[C@H]3O[C@H](O[C@]4(CO)O[C@H](CO)[C@@H](O)[C@@H]4O)[C@H](O)[C@@H](O)[C@@H]3O)[C@H](O)[C@@H](O)[C@H]2O)[C@H](O)[C@@H](O)[C@H]1O"
  measured target: "NHBE cells"
  label value: "hi"
- molecule: "OC[C@@H](O)[C@@H](O)[C@H](O)[C@@H](O)CO"
  measured target: "NHBE cells"
  label value: "hi"
- molecule: "O=C(CO)[C@@H](O[C@H]1O[C@H](CO)[C@@H](O)[C@H](O)[C@H]1O)[C@H](O)[C@H](O)CO"
  measured target: "NHBE cells"
  label value: "lo"
- molecule: "OC[C@H]1O[C@H](OC[C@H]2O[C@H](O[C@]3(CO)O[C@H](CO)[C@@H](O)[C@@H]3O)[C@H](O)[C@@H](O)[C@@H]2O)[C@H](O)[C@@H](O)[C@H]1O"
  measured target: "NHBE cells"
  label value: "lo"
- molecule: "OC[C@H]1O[C@@H](OC[C@H]2OC(O)[C@H](O)[C@@H](O)[C@@H]2O)[C@H](O)[C@@H](O)[C@@H]1O (some centres unmarked)"
  measured target: "NHBE cells"
  label value: "mid"
- molecule: "OC[C@@H](O)[C@@H](O)[C@@H](O)CO"
  measured target: "NHBE cells"
  label value: "lo"
- molecule: "O=C(CO)[C@@H](O)[C@H](O)[C@H](O)COP(=O)(O)O [D-Fructose-6-Phosphate]"
  measured target: "NHBE cells"
  label value: "mid"
- molecule: "OC[C@H]1O[C@H](OC[C@H]2OC(O)(CO)[C@@H](O)[C@@H]2O)[C@H](O)[C@@H](O)[C@@H]1O (some centres unmarked)"
  measured target: "NHBE cells"
  label value: "lo"
- molecule: "O=C(O)C[C@H](O)C(=O)O"
  measured target: "NHBE cells"
  label value: "mid"
- molecule: "O=C(O)CCC(=O)O"
  measured target: "NHBE cells"
  label value: "hi"
- molecule: "OC[C@H]1O[C@H](O[C@H]2O[C@H](CO)[C@@H](O)[C@H](O)[C@H]2O)[C@H](O)[C@@H](O)[C@@H]1O"
  measured target: "NHBE cells"
  label value: "hi"
- molecule: "C[C@H](O)[C@H](O)[C@@H](O)[C@@H](O)C=O"
  measured target: "NHBE cells"
  label value: "lo"
- molecule: "CC(O)CO (centres unmarked)"
  measured target: "NHBE cells"
  label value: "hi"
- molecule: "CC(O)C(C)O (centres unmarked)"
  measured target: "NHBE cells"
  label value: "lo"
- molecule: "O=C(O)C[C@@H](O)C(=O)O"
  measured target: "NHBE cells"
  label value: "mid"
- molecule: "O=C(CO)[C@@H](O)[C@H](O)[C@H](O)CO"
  measured target: "NHBE cells"
  label value: "mid"
- molecule: "OC[C@H]1O[C@@H](O[C@H]2[C@H](O)[C@@H](O)[C@@H](O)O[C@@H]2CO)[C@H](O)[C@@H](O)[C@H]1O"
  measured target: "NHBE cells"
  label value: "lo"
- molecule: "OC[C@H]1O[C@@H]2O[C@H]3[C@H](O)[C@@H](O)[C@@H](O[C@H]4[C@H](O)[C@@H](O)[C@@H](O[C@H]5[C@H](O)[C@@H](O)[C@@H](O[C@H]6[C@H](O)[C@@H](O)[C@@H](O[C@H]7[C@H](O)[C@@H](O)[C@@H](O[C@H]1[C@H](O)[C@H]2O)O[C@@H]7CO)O[C@@H]6CO)O[C@@H]5CO)O[C@@H]4CO)O[C@@H]3CO"
  measured target: "NHBE cells"
  label value: "hi"
- molecule: "O=C(O)C(O)C(O)C(=O)O (centres unmarked)"
  measured target: "NHBE cells"
  label value: "hi"
- molecule: "O=C(O)CCCO [g-Hydroxy-Butyric Acid]"
  measured target: "NHBE cells"
  label value: "lo"
- molecule: "CC(=O)CC(=O)O"
  measured target: "NHBE cells"
  label value: "mid"
